Target: human KOR (Homo sapiens)
Assay: GloSensor assay, Gi-mediated cAMP inhibition in HEK-293T cells transfected with human KOR
Format: cell-based
Conditions: given as Log IC50 (negative values); agonist activity, inhibition of FSK-stimulated cAMP; read-out: GloSensor Assay (Log IC50) KOR (converted)
Reported Property: IC50 (µM)

Compound	Recorded Measurement
Clc1ccc(-c2c3c4[nH]c5ccccc5c4c4ccccc4[n+]3cn2-c2ccc(Br)cc2)cc1 [12db]	0.251
Brc1ccc(-n2c[n+]3ccc4c5ccccc5[nH]c4c3c2-c2ccccc2Br)cc1.[Cl-]	0.00251

[1] Fc1ccc(Cn2c[n+]3ccc4c5ccccc5[nH]c4c3c2-c2ccc(Br)cc2)cc1
[2] c1ccc(-n2c[n+]3ccc4c5ccccc5[nH]c4c3c2-c2cc3ccccc3o2)cc1
[3] Fc1ccc(-n2c[n+]3ccc4c5ccccc5[nH]c4c3c2-c2cccc(Cl)c2)cc1
Given 3 compounds, produce a descending ranking by IC50. Arrange the labels as the request states and list them.
3, 1, 2

[P] COc1ccc(-n2c[n+]3ccc4c5ccccc5[nH]c4c3c2-c2ccc(Cl)cc2)cc1
[Q] Fc1ccc(-n2c[n+]3ccc4c5ccccc5[nH]c4c3c2-c2cccc(F)c2)cc1
[R] COC(=O)c1cc2c3ccccc3[nH]c2c2c(C)n(-c3ccc(F)cc3)c[n+]12
[S] Brc1ccc(-c2c3c4[nH]c5ccccc5c4cc[n+]3cn2-c2ccccc2)cc1
[T] Clc1ccc(-n2c[n+]3ccc4c5ccccc5[nH]c4c3c2-c2ccccc2)cc1
Ordering: ascending IC50. Arrange the labels as the request states and list them.
S, T, Q, P, R
(S: 0.0708 µM, T: 0.126 µM, Q: 0.2 µM, P: 0.794 µM, R: 3.16 µM)

[I] Fc1ccc(-n2c[n+]3ccc4c5ccccc5[nH]c4c3c2-c2cccs2)cc1
[II] Brc1ccc(-n2c[n+]3ccc4c5ccccc5[nH]c4c3c2-c2ccccc2)cc1
Given I and given II , which shows the smaller recorded IC50? Please respond with the label that marks your chosen entry.
II
(II: 0.0661 µM, I: 0.209 µM)

* * *

Target: human KOR (Homo sapiens, UniProt P41145)
Sequence (P41145 whole entry): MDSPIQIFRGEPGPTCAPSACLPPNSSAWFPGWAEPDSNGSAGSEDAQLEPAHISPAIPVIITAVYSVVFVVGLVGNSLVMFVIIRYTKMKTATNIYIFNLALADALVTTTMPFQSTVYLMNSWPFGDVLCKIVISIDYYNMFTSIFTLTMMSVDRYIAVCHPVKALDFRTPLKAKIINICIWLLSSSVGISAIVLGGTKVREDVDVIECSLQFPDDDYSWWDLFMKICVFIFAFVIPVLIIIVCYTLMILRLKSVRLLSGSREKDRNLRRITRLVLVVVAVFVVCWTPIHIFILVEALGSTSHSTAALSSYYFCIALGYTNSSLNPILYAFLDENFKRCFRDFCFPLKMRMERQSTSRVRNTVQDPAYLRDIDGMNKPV
Test: GloSensor assay, Gi-mediated cAMP inhibition in HEK-293T cells transfected with human KOR
Assay type: cell-based
Details: Table 2, KOR; read-out: GloSensor Assay (pIC50) (converted)
Reported Property: IC50 (nM)
Report as a plain number; the unit nM is understood.

Answered cases to consult:
Molecule	IC50 (nM)
Clc1ccc(-c2c3c4[nH]c5ccccc5c4cc[n+]3cn2-c2ccc(Br)cc2)cc1.[Cl-] [8adb]	20
Fc1ccc(-n2c[n+]3ccc4c5ccccc5[nH]c4c3c2-c2ccc(Cl)cc2)cc1.[Cl-] [8add]	2.94
Fc1ccc(-n2c[n+]3ccc4c5ccccc5[nH]c4c3c2-c2ccccc2Cl)cc1.[Cl-] [8aed]	10

// moving on: another record for IC50
Returns the measured IC50 for the input molecule. Input: Brc1ccc(-n2c[n+]3ccc4c5ccccc5[nH]c4c3c2-c2ccccc2Br)cc1.[Cl-] [8acb]
0.115

* * *

Target: human KOR (Homo sapiens)
Assay: GloSensor assay, Gi-mediated cAMP inhibition in HEK-293T cells transfected with human KOR
Assay type: cell-based
Details: given as Log IC50 (negative values); agonist activity, inhibition of FSK-stimulated cAMP; read-out: GloSensor Assay (Log IC50) KOR (converted)
Reported Property: IC50 (nM)

Answered cases to consult:
Compound	Units Symbol	IC50
Brc1ccccc1-c1c2c3[nH]c4ccccc4c3cc[n+]2cn1-c1ccccc1 [8aca]	nM	200
Brc1ccc(-c2c3c4[nH]c5ccccc5c4cc[n+]3cn2-c2cccc(Br)c2)cc1.[Cl-] [8abe]	nM	1.26
Fc1cccc(-c2c3c4[nH]c5ccccc5c4cc[n+]3cn2-c2ccc(Cl)cc2)c1 [8aic]	nM	91.2
COc1ccc(Cn2c[n+]3ccc4c5ccccc5[nH]c4c3c2-c2ccc(Cl)cc2)cc1OC [9abg]	nM	955
Fc1ccccc1-n1c[n+]2ccc3c4ccccc4[nH]c3c2c1-c1ccc(Br)cc1 [8abk]	nM	79.4
Fc1ccc(-n2c[n+]3ccc4c5ccccc5[nH]c4c3c2-c2ccc(Br)cc2)cc1.[Cl-] [8abd]	nM	5.01
Fc1ccc(-n2c[n+]3ccc4c5ccccc5[nH]c4c3c2-c2ccccc2Br)cc1.[Cl-] [8acd]	nM	1.58
Cc1ccc(-c2c3c4[nH]c5ccccc5c4cc[n+]3cn2-c2ccc(F)cc2)cc1.[Cl-] [8akd]	nM	1.58

[a] COc1ccc(Cn2c[n+]3ccc4c5ccccc5[nH]c4c3c2-c2ccc(Br)cc2)cc1OC [9aag]
[b] Fc1ccc(-n2c[n+]3ccc4c5ccccc5[nH]c4c3c2-c2ccccc2)cc1 [8aad]
Given a and given b , which shows the smaller recorded IC50? Please respond with the label that marks your chosen entry.
a
(a: 166 nM, b: 269 nM)
